Biological target: KRas G12V (Homo sapiens, UniProt P01116, G12V)
Sequence (P01116 1-169 isoform P01116-2 G12V): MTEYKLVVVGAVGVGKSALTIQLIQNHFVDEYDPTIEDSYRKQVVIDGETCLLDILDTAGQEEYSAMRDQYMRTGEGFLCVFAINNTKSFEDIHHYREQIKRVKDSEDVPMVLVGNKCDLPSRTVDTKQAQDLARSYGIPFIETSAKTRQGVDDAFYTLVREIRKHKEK
Assay: biochemical
Reported IC50 values are given for each entry in this list.
Give the value in nM but do not write nM after it.

1) Fc1c(-c2cccc3cccc(F)c23)ncc2c(N3CC(c4ccncc4)C3)nc(OCC34CCCN3CCC4)nc12 | 5570

Which measured IC50 belongs to Cc1c(N)nn2c1CN(c1nc(OCC34CCCN3CCC4)nc3c(F)c(-c4cccc5cccc(F)c45)ncc13)CCC2 , tested on KRas G12V (Homo sapiens, UniProt P01116, G12V)?
1990

Which measured IC50 belongs to O=C1NCC12CCCN(c1nc(OC[C@@]34CCCN3C[C@H](F)C4)nc3c(F)c(-c4cc(O)cc5ccc(F)c(Cl)c45)ncc13)C2 (some centres unmarked) , tested on KRas G12V (Homo sapiens, UniProt P01116, G12V)?
4

Which measured IC50 belongs to OCC1COCCN(c2nc(OCC34CCCN3CCC4)nc3c(F)c(-c4cc(O)cc5ccc(F)c(F)c45)ncc23)C1 (centres unmarked) , tested on KRas G12V (Homo sapiens, UniProt P01116, G12V)?
6

Which measured IC50 belongs to O[C@@H]1C[C@H](O)CN(c2nc(OCC34CCCN3CCC4)nc3c(F)c(-c4cccc5cccc(F)c45)ncc23)C1 , tested on KRas G12V (Homo sapiens, UniProt P01116, G12V)?
1020

Which measured IC50 belongs to Fc1c(-c2cccc3cccc(F)c23)ncc2c(N3CCCC4(COC4)C3)nc(OCC34CCCN3CCC4)nc12 , tested on KRas G12V (Homo sapiens, UniProt P01116, G12V)?
6070

Which measured IC50 belongs to NC(=O)[C@H]1CCCN(c2nc(OCC34CCCN3CCC4)nc3c(F)c(-c4cccc5cccc(F)c45)ncc23)C1 , tested on KRas G12V (Homo sapiens, UniProt P01116, G12V)?;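 also: KRas binding measured by TR-FRET displacement at room temperature, IC50 fitted from percent of control values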
2310

* * *

Reported pIC50 values are given for each entry in this list.
Tested on: pERK in PSN1 cells
Assay: Inhibition of KRas phosphorylation of ERK (Cisbio HTRF pERK assay)
Conditions: Homo sapiens, PSN1, 3 h, read-out: Inhibition (HTRF IC50) of KRas-mediated Phosphorylation of ERK, PSN1
# pIC50: negative log10 of molar concentration; output just the value

1. Oc1cc(-c2ncc3c(N4CCC[C@]5(C4)C[C@H](O)C5)nc(OC[C@@]45CCCN4C[C@H](F)C5)nc3c2F)c2c(F)c(F)ccc2c1 (single isomer, unassigned) | 5.54
2. CCc1c(F)ccc2cc(O)cc(-c3ncc4c(N5CCCC6(CCSC6)C5)nc(OC[C@@]56CCCN5C[C@H](F)C6)nc4c3F)c12 (some centres unmarked) | 5.44
3. Oc1cc(-c2ncc3c(N4CC5CC(O)C(C5)C4)nc(OC[C@@]45CCCN4C[C@H](F)C5)nc3c2F)c2c(Br)c(F)ccc2c1 (some centres unmarked) | 6.29

For the compound shown here, Cc1c(F)ccc2cc(O)cc(-c3ncc4c(N5CCCC(CS(N)(=O)=O)C5)nc(OC[C@@]56CCCN5C[C@H](F)C6)nc4c3F)c12 (some centres unmarked) , give the reported pIC50.
5.42

For the compound shown here, CCc1c(F)ccc2cc(O)cc(-c3ncc4c(N5C[C@@H]6C[C@H](C5)[C@H](O)C6)nc(OCC5(CN(C)C)CC5)nc4c3F)c12 , give the reported pIC50.
5.04

For the compound shown here, C#Cc1c(F)ccc2cc(O)cc(-c3ncc4c(N5C[C@@H]6C[C@H](C5)[C@H](O)C6)nc(OC[C@@]56CCCN5C[C@H](F)C6)nc4c3F)c12 , give the reported pIC50.
6.39

For the compound shown here, OCC1COCCN(c2nc(OC[C@@]34CCCN3C[C@H](F)C4)nc3c(F)c(-c4cc(O)cc5ccc(F)c(Br)c45)ncc23)C1 (some centres unmarked) , give the reported pIC50.
5.00

* * *

Reported pIC50 values are given for each entry in this list.
Tested on: pERK in ASPC1 cells
Experiment: Inhibition of KRas phosphorylation of ERK (Cisbio HTRF pERK assay)
Details: Homo sapiens, ASPC1, read-out: Inhibition (HTRF IC50) of KRas-mediated Phosphorylation of ERK, AsPC-1
# pIC50: negative log10 of molar concentration; output just the value

Illustrative cases are given below, each with its answer.
1. O=C1NC[C@]2(CCCN(c3nc(OC[C@@]45CCCN4C[C@H](F)C5)nc4c(F)c(-c5cc(O)cc6ccc(F)c(Cl)c56)ncc34)C2)N1 | 6.26
2. CCc1c(F)ccc2cc(O)cc(-c3ncc4c(N5CCCC6(C5)CS(=O)(=O)C6)nc(OC[C@@]56CCCN5C[C@H](F)C6)nc4c3F)c12 | 6.41
3. Oc1cc(-c2ncc3c(N4CC5CC(O)C(C5)C4)nc(OC[C@@]45CCCN4C[C@H](F)C5)nc3c2F)c2c(Cl)c(F)ccc2c1 (stereo partly drawn) | 7.21
4. CCc1c(F)ccc2cc(O)cc(-c3ncc4c(N5CCCC(NS(N)(=O)=O)C5)nc(OC[C@@]56CCCN5C[C@H](F)C6)nc4c3F)c12 (stereo partly drawn) | 6.02

Please find the next compound below.
Which measured pIC50 belongs to CCc1c(F)ccc2cc(O)cc(-c3ncc4c(N5CCOC[C@@](C)(O)C5)nc(OC[C@@]56CCCN5C[C@H](F)C6)nc4c3F)c12 , tested on pERK in ASPC1 cells?
8.52

* * *

Tested on: phospho-ERK in MKN1 (WTdep) cells
Test: Inhibition of KRas-mediated phosphorylation of ERK (in-cell western)
Assay type: cell-based
Conditions: Homo sapiens, MKN-1, 3 hours compound, phospho-ERK normalized to GAPDH
Mark True only for IC50 values smaller than 30 nM; exact matches and larger values are False.

# count of solved cases: 4
1. CCc1c(F)ccc2cc(O)cc(-c3ncc4c(NCc5cc[nH]n5)nc(OC[C@@]56CCCN5C[C@H](F)C6)nc4c3F)c12 | False
2. CCc1c(F)ccc2cc(O)cc(-c3ncc4c(N5CCC[C@@](C)(O)C5)nc(OCC56CCCN5CCC6)nc4c3F)c12 | True
3. CCc1c(F)ccc2cc(O)cc(-c3ncc4c(NCCc5c[nH]c6ncccc56)nc(OC[C@@]56CCCN5C[C@H](F)C6)nc4c3F)c12 | False
4. CCc1c(F)ccc2cc(O)cc(-c3ncc4c(N5CC6CC(O)CC5C6)nc(OC[C@@]56CCCN5C[C@H](F)C6)nc4c3F)c12 (stereo partly drawn) | True

Bench note: check whether CCc1c(F)ccc2cc(O)cc(-c3ncc4c(N5CCCC6(CNC6=O)C5)nc(OC[C@@]56CCCN5C[C@H](F)C6)nc4c3F)c12 (stereo partly drawn) shows IC50 below 30 nM
True

Bench note: check whether CCc1c(F)ccc2cc(O)cc(-c3ncc4c(N5CCN(c6ncccc6C#N)CC5)nc(OC[C@@]56CCCN5C[C@H](F)C6)nc4c3F)c12 shows IC50 below 30 nM
False

* * *

Target: KRas Q61H (Homo sapiens, UniProt P01116, Q61H)
Construct: Biotinylated KRas (corresponding to amino acids 1-169, produced at Accelegan Inc.); biotin (biotinylated); purchased Accelegan Inc
Sequence (P01116 1-169 isoform P01116-2 Q61H): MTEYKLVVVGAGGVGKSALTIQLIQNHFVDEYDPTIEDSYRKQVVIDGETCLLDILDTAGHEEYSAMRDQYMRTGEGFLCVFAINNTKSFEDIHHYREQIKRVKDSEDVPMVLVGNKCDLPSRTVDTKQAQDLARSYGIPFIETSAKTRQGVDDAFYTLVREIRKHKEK
Assay: KRas binding assay (TR-FRET displacement);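 also: TR-FRET signal read after one hour at room temperature, IC50 derived by four-parameter fitting of percent-of-control values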
Reported IC50 values are given for each entry in this list.
Give the value in nM but do not write nM after it.

1) CN(C)CC1(COc2nc(N3CCCC(C)(O)C3)c3cnc(-c4cccc5cccc(F)c45)c(F)c3n2)CC1 (stereo not shown) [Example 256] | 6020
2) O=c1[nH][nH]cc1CNc1nc(OCC23CCCN2CCC3)nc2c(F)c(-c3cccc4cccc(F)c34)ncc12 [Example 230] | 23300
3) O=c1cc(CNc2nc(OCC34CCCN3CCC4)nc3c(F)c(-c4cccc5cccc(F)c45)ncc23)[nH][nH]1 [Example 231] | 62300
4) O=C1NCC(CNc2nc(OCC34CCCN3CCC4)nc3c(F)c(-c4cccc5cccc(F)c45)ncc23)O1 (stereo not shown) [Example 110] | 10100
5) Fc1c(-c2cccc3cccc(F)c23)ncc2c(NCc3cn[nH]c3)nc(OCC34CCCN3CCC4)nc12 [Example 93] | 21800
6) CNC(=O)c1cc2n(n1)CCCN(c1nc(OCC34CCCN3CCC4)nc3c(F)c(-c4cccc5cccc(F)c45)ncc13)C2 [Example 259] | 3180
7) Fc1c(-c2cccc3cccc(F)c23)ncc2c(NCCc3c[nH]c4ncccc34)nc(OCC34CCCN3CCC4)nc12 [Example 212] | 17400
8) NC(=O)NC1CCN(c2nc(OCC34CCCN3CCC4)nc3c(F)c(-c4cccc5cccc(F)c45)ncc23)CC1 [Example 243] | 3580

For the compound shown here, Fc1c(-c2cccc3cccc(F)c23)ncc2c(N3CCCC(c4cc[nH]n4)C3)nc(OCC34CCCN3CCC4)nc12 (stereo not shown) [Example 131] , give the reported IC50.
7690

For the compound shown here, O=CNC1CCN(c2nc(OCC34CCCN3CCC4)nc3c(F)c(-c4cccc5cccc(F)c45)ncc23)CC1 [Example 244] , give the reported IC50.
5080

For the compound shown here, Fc1c(-c2cccc3cccc(Cl)c23)ncc2c(N3CCCC3c3cn[nH]c3)nc(OCC34CCCN3CCC4)nc12 (stereo not shown) [Example 104] , give the reported IC50.
3210

For the compound shown here, Fc1c(-c2cccc3cccc(F)c23)ncc2c(N3CCCCC3)nc(OCC34CCCN3CCC4)nc12 [Example 21] , give the reported IC50.
19400

For the compound shown here, OC1CCC12CCCN(c1nc(OCC34CCCN3CCC4)nc3c(F)c(-c4cccc5cccc(F)c45)ncc13)C2 (stereo not shown) [Example 233] , give the reported IC50.
5350

For the compound shown here, Fc1c(-c2cccc3cccc(F)c23)ncc2c(NCCc3cnoc3)nc(OCC34CCCN3CCC4)nc12 [Example 219] , give the reported IC50.
20200

Origin of values: patent US12398154B2
